All figures here come from patent US10292991B2.

# Test system: zebrafish larvae
# Assay Remarks: Morpholino injection to induce hemorrhage in zebrafish larvae
# Assay type: in vivo
# Condition Context: at optimum injected amount; 3 dpf larvae; n = 150-250 per condition
Value Type: Hemorrhage (%)
Give the value in % but do not write % after it.

// Hemorrhage value for Cdh5 - exon2: morpholino 5′-TACAAGACCGTCTACCTTTCCAATC-3′ (antisense; all phosphorodiamidate morpholino (PMO)) : 39.4

// Hemorrhage value for Hmgcrb - splice: morpholino 5′-AACTGCATTCATAAACTCACCCAGT-3′ (all phosphorodiamidate morpholino (PMO)) : 67.9

----------
# System: zebrafish larvae
# Assay Remarks: Toxicity assay in zebrafish larvae (heart beat, blood flow, cardiac edema)
# Type: in vivo, zebrafish (Danio rerio)
# Condition Context: drug from Sequoia Research (UK)
Task for the reader: assign each of the following compounds its reported TC50 (Blood flow).
Give the value in nM but do not write nM after it.

The compound C[C@@H]1CC[C@H]2[C@@H](C)C(=O)O[C@@H]3O[C@]4(C)CC[C@@H]1[C@]32OO4 [Artemisinin] on zebrafish larvae: TC50 (Blood flow) was 5340

The compound C[C@H]1[C@H](OC(=O)CCC(=O)O)O[C@@H]2O[C@@]3(C)CC[C@H]4[C@H](C)CC[C@@H]1[C@@]24OO3 [Artesunate] on zebrafish larvae: TC50 (Blood flow) was 1036

The compound C[C@H]1[C@@H](O)O[C@@H]2O[C@]3(C)CC[C@H]4[C@H](C)CC[C@@H]1[C@@]24OO3 [Dihydroartemisinin] on zebrafish larvae: TC50 (Blood flow) was 979.5

The compound CO[C@H]1O[C@@H]2O[C@@]3(C)CC[C@H]4[C@H](C)CC[C@@H]([C@H]1C)[C@@]24OO3 [Artemether] on zebrafish larvae: TC50 (Blood flow) was 746.3
